target or test system: DNA topoisomerase II beta, full length (human, UniProt Q02880 1-1626)
Sequence (Q02880 whole entry): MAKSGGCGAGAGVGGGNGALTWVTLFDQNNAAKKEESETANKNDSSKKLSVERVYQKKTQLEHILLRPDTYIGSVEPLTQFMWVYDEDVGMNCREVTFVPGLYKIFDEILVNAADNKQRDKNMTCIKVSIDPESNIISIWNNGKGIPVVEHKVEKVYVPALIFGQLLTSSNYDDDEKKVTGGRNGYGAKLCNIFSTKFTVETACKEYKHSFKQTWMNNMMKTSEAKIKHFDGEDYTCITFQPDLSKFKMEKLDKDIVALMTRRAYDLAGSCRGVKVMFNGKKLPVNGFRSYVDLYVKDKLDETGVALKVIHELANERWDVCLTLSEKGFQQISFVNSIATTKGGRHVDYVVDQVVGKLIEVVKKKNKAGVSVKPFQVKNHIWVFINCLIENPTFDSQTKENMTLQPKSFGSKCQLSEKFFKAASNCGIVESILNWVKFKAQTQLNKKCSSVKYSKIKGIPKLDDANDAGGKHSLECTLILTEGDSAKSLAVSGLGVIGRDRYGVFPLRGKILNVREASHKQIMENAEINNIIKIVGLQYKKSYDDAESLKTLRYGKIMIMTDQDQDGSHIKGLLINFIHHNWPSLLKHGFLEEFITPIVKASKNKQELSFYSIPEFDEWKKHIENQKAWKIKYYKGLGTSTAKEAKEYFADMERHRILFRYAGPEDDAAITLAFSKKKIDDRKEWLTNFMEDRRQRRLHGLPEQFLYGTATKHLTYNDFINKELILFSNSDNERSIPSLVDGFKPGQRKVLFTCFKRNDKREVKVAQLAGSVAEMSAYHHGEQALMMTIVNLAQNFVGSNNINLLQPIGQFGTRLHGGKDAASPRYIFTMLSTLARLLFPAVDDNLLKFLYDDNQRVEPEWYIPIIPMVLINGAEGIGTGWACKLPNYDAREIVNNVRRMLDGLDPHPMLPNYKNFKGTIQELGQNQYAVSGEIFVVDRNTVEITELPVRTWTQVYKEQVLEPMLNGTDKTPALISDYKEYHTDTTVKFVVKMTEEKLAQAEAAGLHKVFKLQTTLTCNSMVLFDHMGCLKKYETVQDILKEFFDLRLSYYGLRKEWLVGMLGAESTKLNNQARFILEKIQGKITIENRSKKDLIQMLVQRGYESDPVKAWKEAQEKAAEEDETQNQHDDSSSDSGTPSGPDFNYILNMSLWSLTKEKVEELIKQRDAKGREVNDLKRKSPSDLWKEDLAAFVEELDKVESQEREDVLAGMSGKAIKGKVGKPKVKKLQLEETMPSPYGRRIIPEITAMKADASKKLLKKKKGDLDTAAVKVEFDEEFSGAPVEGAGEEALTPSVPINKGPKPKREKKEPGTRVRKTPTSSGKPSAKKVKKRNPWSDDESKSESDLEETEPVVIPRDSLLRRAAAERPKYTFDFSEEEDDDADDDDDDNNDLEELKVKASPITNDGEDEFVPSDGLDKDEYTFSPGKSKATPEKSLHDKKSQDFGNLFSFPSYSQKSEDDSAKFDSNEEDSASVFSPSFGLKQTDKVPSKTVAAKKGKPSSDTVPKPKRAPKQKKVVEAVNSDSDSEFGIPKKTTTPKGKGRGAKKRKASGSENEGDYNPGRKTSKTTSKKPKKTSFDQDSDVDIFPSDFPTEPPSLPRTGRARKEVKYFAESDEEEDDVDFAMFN
experimental details: fluorescence anisotropy; no metal; 50 mM Tris pH 8, 5% glycerol, 50 mM KCl, 1% Triton X-100, 100 µg/ml acetylated BSA, 20°C; HEX oligo printed as 1 µM; 10 mM MgCl2 or CaCl2 where described
protocol conditions: protein: recombinant; chain copies: 2; blunt; as printed S2 is not the exact complement of S1: 2 mismatches at S1 positions 34-35 (possible typo)

{"binder": "40 bp oligo AB (dsDNA) DNA 1: CGCAATCTGACAATGCGCTCATCGTCATCCTCGCGACGCG DNA 2: CGCGTGCCGAGGATGACGATGAGCGCATTGTCAGATTGCG", "Kd / nM": 46.4}
